# test.system: NAMPT (human, recombinant, C-terminally His-tagged) (Homo sapiens)
# Sequence (P43490 whole entry): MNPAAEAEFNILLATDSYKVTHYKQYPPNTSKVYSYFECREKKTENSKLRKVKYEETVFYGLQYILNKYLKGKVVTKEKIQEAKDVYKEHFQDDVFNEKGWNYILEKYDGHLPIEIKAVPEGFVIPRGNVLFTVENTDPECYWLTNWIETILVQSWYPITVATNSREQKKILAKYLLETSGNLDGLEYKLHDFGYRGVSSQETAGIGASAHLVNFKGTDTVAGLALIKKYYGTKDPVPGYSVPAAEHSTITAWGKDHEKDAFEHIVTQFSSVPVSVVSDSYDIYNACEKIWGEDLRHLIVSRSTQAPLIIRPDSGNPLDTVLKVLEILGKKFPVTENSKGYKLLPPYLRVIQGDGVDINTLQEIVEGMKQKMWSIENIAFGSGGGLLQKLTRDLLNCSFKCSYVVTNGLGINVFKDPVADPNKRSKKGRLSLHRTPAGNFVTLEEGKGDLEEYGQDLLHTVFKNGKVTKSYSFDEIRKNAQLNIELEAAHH
# procedure.text: Time-Resolved Fluorescence Resonance Energy Transfer (TR-FRET) Binding Assay of NAMPT
# measurement.setup: 6.8 nM NAMPT, 200 nM probe, equilibrated 3 hours, absence of substrates
# Protocol: Determination of the utility of compounds having Formula (I) as binders to and inhibitors of NAMPT was performed using Time-Resolved Fluorescence Resonance Energy Transfer (TR-FRET) binding assays. Time-Resolved Fluorescence Resonance Energy Transfer (TR-FRET) Binding Assay of NAMPT […]
experimental.endpoint: IC50 (nM)

Consider the worked cases shown below.
structure.smiles | numeric.value
Cc1ncccc1N1CC(C(=O)Nc2ccc(C3CCN(C(=O)c4ccccc4F)CC3)cc2)C1 | 6.53
CCCC(=O)N1CCC(c2ccc(NC(=O)C3CN(c4cccnc4C)C3)cc2)CC1 | 122

1. O=C(Nc1ccc(OC2CCN(C(=O)Cc3ccc(F)cc3F)CC2)cc1)C1CN(c2ccnnc2)C1
2. O=C(Nc1ccc(C2CCN(C(=O)c3cc(Cl)ccc3Cl)CC2)cc1)C1CN(c2cccnn2)C1
Challenge: Min IC50? 1 | 2 Lab log: write the label of the selected item as the result.
Response given: 2

----------
# test.system: NAMPT (human, recombinant, C-terminally His-tagged) (Homo sapiens)
# procedure.text: Time-Resolved Fluorescence Resonance Energy Transfer (TR-FRET) Binding Assay of NAMPT
# measurement.setup: 6.8 nM NAMPT, 200 nM probe, equilibrated 3 hours, absence of substrates
experimental.endpoint: IC50 (nM)

Consider the worked cases shown below.
compound | IC50, nM
O=C(Nc1ccc(C2CCN(C(=O)c3ccccc3)CC2)cc1)[C@H]1CCN(c2cccnn2)C1 | 30.2
COc1ccncc1N1CC(C(=O)Nc2ccc(C3CCN(C(=O)C(C)(C)O)CC3)cc2)C1 | 115
O=C(Nc1ccc(OC2CCN(C(=O)[C@@H]3CCCO3)CC2)cc1)C1CN(c2cccnc2)C1 | 109
CCC(C)CC(=O)N1CCC(c2ccc(NC(=O)C3CN(c4cccnn4)C3)cc2)CC1 (stereo not shown) | 25.3
O=C(Nc1ccc(OC2CCN(C(=O)c3ccc(F)cc3F)CC2)cc1)C1CN(c2ccnnc2)C1 | 62.4

I. O=C(Nc1ccc(OC2CN(C(=O)C3CCCCC3)C2)cc1)C1CN(c2ccnnc2)C1
II. CC(=O)N1CCC(c2ccc(NC(=O)C3CN(c4cccnc4)C3)cc2)CC1
Challenge: Given I and II , report the one with the higher recorded IC50. Please indicate the selected item by its label.
Response given: I
(I: 47.3 nM, II: 14.1 nM)

----------
These records show IC50 for NAMPT (Homo sapiens).
experimental.endpoint: IC50 (nM)

compound | IC50, nM
CC(=O)N1CCC(Oc2ccc(NC(=O)C3CN(c4cccnc4)C3)cc2)CC1 | 0.812
O=C(Nc1ccc(C2CCN(C(=O)Cc3cccc(F)c3)CC2)cc1)C1CN(c2cccnn2)C1 | 0.735
O=C(Nc1ccc(OC2CCN(C(=O)CC3C[C@@H]4CC[C@H]3C4)CC2)cc1)C1CN(c2cccnc2)C1 (stereo partly shown) | 0.882
COc1ccc(C(=O)N2CCC(c3ccc(NC(=O)C4CN(c5cccnn5)C4)cc3)CC2)cc1 | 0.94
O=C(Nc1ccc(OC2CCN(C(=O)c3ccc(F)cc3)CC2)cc1)C1CN(c2cccnn2)C1 | 0.843
O=C(Nc1ccc(OC2CCN(C(=O)C3CCOCC3)CC2)cc1)C1CN(c2cccnn2)C1 | 0.841
O=C(Nc1ccc(OC2CCN(C(=O)Cc3cccc(C(F)(F)F)c3)CC2)cc1)C1CN(c2cccnn2)C1 | 0.925

Taken from patent US8975398B2.
